- System: PBMC of healthy adult blood donors from Colombo, Sri Lanka
- experiment: Ex vivo IFNγ ELISPOT, HLA-matched PBMC of Sri Lankan blood donors
- Format: cell-based, human
- Design: unit not given here
- appliedConditions: total over responding donors; restricting HLA allele and serotype as given
Classification by Total Response per epitope | ranges: low: < 200; middle: ≥ 200 and < 500; high: ≥ 500

Sample answers from the record:
substanceSmiles	qualitativeLabel
CC(C)C[C@H](NC(=O)[C@@H](NC(=O)[C@H](C)NC(=O)[C@H](CCC(=O)O)NC(=O)CNC(=O)[C@H](CCC(N)=O)NC(=O)[C@@H](NC(=O)[C@@H]1CCCN1C(=O)[C@@H](N)CS)[C@@H](C)O)[C@@H](C)O)C(=O)O	middle
CC(C)C[C@H](NC(=O)[C@H](CCCNC(=N)N)NC(=O)[C@@H]1CCCN1C(=O)[C@@H](N)CC(N)=O)C(=O)N[C@@H](CS)C(=O)N[C@H](C(=O)N[C@@H](CCCNC(=N)N)C(=O)N[C@@H](CCC(=O)O)C(=O)N[C@@H](CCC(=O)O)C(=O)N[C@@H](Cc1ccccc1)C(=O)O)[C@@H](C)O	middle
CC[C@H](C)[C@H](N)C(=O)N[C@@H](C)C(=O)N[C@H](C(=O)N[C@@H](CO)C(=O)N[C@H](C(=O)N[C@@H](C)C(=O)N[C@@H](CC(N)=O)C(=O)N[C@H](C(=O)N[C@@H](Cc1ccccc1)C(=O)O)[C@@H](C)CC)[C@@H](C)O)C(C)C	middle
CSCC[C@H](NC(=O)[C@H](CCSC)NC(=O)[C@H](CC(C)C)NC(=O)[C@@H](N)CS)C(=O)N[C@@H](CCSC)C(=O)N[C@@H](CC(C)C)C(=O)N1CCC[C@H]1C(=O)N[C@@H](C)C(=O)N[C@H](C(=O)N[C@@H](CC(C)C)C(=O)O)[C@@H](C)O	low
CC[C@H](C)[C@H](N)C(=O)N[C@H](C(=O)N[C@@H](CC(C)C)C(=O)N[C@@H](CCC(=O)O)C(=O)N[C@@H](Cc1ccccc1)C(=O)N[C@@H](Cc1ccccc1)C(=O)N[C@@H](CC(C)C)C(=O)N[C@@H](CCSC)C(=O)N[C@H](C(=O)O)C(C)C)[C@@H](C)CC	low
CC[C@H](C)[C@H](NC(=O)[C@H](CO)NC(=O)[C@H](CCCCN)NC(=O)[C@H](CCCNC(=N)N)NC(=O)CNC(=O)[C@H](CO)NC(=O)[C@H](C)NC(=O)[C@@H](N)Cc1ccccc1)C(=O)N[C@H](C(=O)N[C@@H](CC(C)C)C(=O)O)[C@@H](C)O	low
CC[C@H](C)[C@H](N)C(=O)N1CCC[C@H]1C(=O)N[C@@H](CCSC)C(=O)N[C@H](C(=O)NCC(=O)N1CCC[C@H]1C(=O)N[C@@H](CC(C)C)C(=O)N[C@H](C(=O)N[C@@H](C)C(=O)NCC(=O)O)C(C)C)[C@@H](C)O	high
CC[C@H](C)[C@H](N)C(=O)NCC(=O)N[C@H](C(=O)NCC(=O)N[C@H](C(=O)N[C@@H](CC(C)C)C(=O)N[C@@H](CC(C)C)C(=O)N[C@H](C(=O)N[C@@H](Cc1c[nH]c2ccccc12)C(=O)O)[C@@H](C)O)[C@@H](C)CC)[C@@H](C)CC	high
CC[C@H](C)[C@H](NC(=O)[C@@H]1CCCN1C(=O)[C@H](CCC(=O)O)NC(=O)[C@H](CCC(=O)O)NC(=O)[C@H](Cc1c[nH]cn1)NC(=O)CNC(=O)[C@@H]1CCCN1C(=O)CN)C(=O)N1CCC[C@H]1C(=O)N[C@@H](CCSC)C(=O)O	middle
CC[C@H](C)[C@H](NC(=O)[C@@H]1CCCN1C(=O)[C@@H](N)CC(=O)O)C(=O)N1CCC[C@H]1C(=O)N[C@@H](Cc1ccc(O)cc1)C(=O)N[C@@H](CC(=O)O)C(=O)N1CCC[C@H]1C(=O)N[C@@H](CCCCN)C(=O)N[C@@H](Cc1ccccc1)C(=O)O	low

In plain terms, what class is CC[C@H](C)[C@H](N)C(=O)N1CCC[C@H]1C(=O)N[C@@H](Cc1ccccc1)C(=O)N[C@@H](CCC(=O)O)C(=O)N[C@H](C(=O)N[C@@H](CCSC)C(=O)N[C@@H](CC(=O)O)C(=O)N[C@@H](CC(C)C)C(=O)N[C@@H](CCC(=O)O)C(=O)N[C@@H](CCCCN)C(=O)O)[C@@H](C)CC ? high

In plain terms, what class is CSCC[C@H](NC(=O)[C@H](CC(C)C)NC(=O)[C@H](CCCCN)NC(=O)[C@H](CCCCN)NC(=O)[C@@H](NC(=O)CNC(=O)[C@H](CCC(=O)O)NC(=O)[C@H](CCCCN)NC(=O)[C@@H]1CCCN1C(=O)[C@@H](N)CCC(=O)O)[C@@H](C)O)C(=O)O ? high

In plain terms, what class is CC(C)C[C@H](NC(=O)[C@H](CC(C)C)NC(=O)[C@@H](NC(=O)[C@H](C)NC(=O)[C@H](C)N)C(C)C)C(=O)N[C@@H](CC(C)C)C(=O)N[C@H](C(=O)N[C@H](C(=O)N[C@@H](Cc1c[nH]cn1)C(=O)N[C@@H](Cc1ccc(O)cc1)C(=O)O)[C@@H](C)O)C(C)C ? middle

In plain terms, what class is CC[C@H](C)[C@H](NC(=O)[C@@H]1CCCN1C(=O)CNC(=O)[C@@H](NC(=O)[C@H](C)N)[C@@H](C)O)C(=O)N[C@@H](CC(C)C)C(=O)N[C@H](C(=O)N[C@@H](CC(C)C)C(=O)N[C@@H](Cc1c[nH]c2ccccc12)C(=O)O)[C@@H](C)O ? high

----------
- System: PBMC of healthy adult blood donors from Colombo, Sri Lanka
- experiment: Ex vivo IFNγ ELISPOT, HLA-matched PBMC of Sri Lankan blood donors
- Format: cell-based, human
- Design: unit not given here
- appliedConditions: total over responding donors; restricting HLA allele and serotype as given
This section presents compounds with their documented Total Response per epitope values.
Form field (numeric): enter value without unit.

Illustrative cases are given below, each with its answer.
substanceSmiles	assayTarget	numericReadout
CC[C@H](C)[C@H](N)C(=O)N1CCC[C@H]1C(=O)N[C@@H](CCSC)C(=O)N[C@@H](CO)C(=O)N[C@H](C(=O)N[C@@H](Cc1ccc(O)cc1)C(=O)NCC(=O)N[C@@H](Cc1c[nH]c2ccccc12)C(=O)N[C@@H](CC(N)=O)C(=O)N[C@@H](CC(C)C)C(=O)O)[C@@H](C)O	PBMC of healthy adult blood donors from Colombo, Sri Lanka	320.0
CC[C@H](C)[C@H](NC(=O)[C@H](C)NC(=O)[C@H](CC(C)C)NC(=O)[C@H](CS)NC(=O)[C@H](CC(C)C)NC(=O)[C@@H](NC(=O)CNC(=O)[C@H](CCSC)NC(=O)[C@@H](NC(=O)[C@@H](N)Cc1ccccc1)[C@@H](C)O)C(C)C)C(=O)O	PBMC of healthy adult blood donors from Colombo, Sri Lanka	58.3
CC[C@H](C)[C@H](N)C(=O)N1CCC[C@H]1C(=O)N[C@@H](CCSC)C(=O)N[C@@H](C)C(=O)N[C@H](C(=O)N[C@@H](Cc1ccc(O)cc1)C(=O)NCC(=O)N[C@@H](Cc1c[nH]c2ccccc12)C(=O)N[C@@H](CC(N)=O)C(=O)N[C@@H](CC(C)C)C(=O)O)[C@@H](C)O	PBMC of healthy adult blood donors from Colombo, Sri Lanka	456.7

# input for lookup
I would be grateful if you could share the reported Total Response per epitope for CC[C@H](C)[C@H](NC(=O)[C@H](C)NC(=O)CNC(=O)[C@@H](N)Cc1ccccc1)C(=O)N[C@@H](Cc1ccc(O)cc1)C(=O)NCC(=O)N[C@@H](C)C(=O)N[C@@H](C)C(=O)N[C@@H](Cc1ccccc1)C(=O)O . 798.3

----------
- assayTarget: purified HLA molecules (corresponding predicted allele)
- experiment: MHC peptide-binding assay, summary over alleles
- Design: species or system human
- appliedConditions: allele B*5101
Ends that are not written are not given here.
measuredMetric: pIC50
# reply with the number alone; pIC50 is -log10 of concentration in mol/L

I would be grateful if you could share the reported pIC50 for MALSIVSLF . 6.22

----------
- System: PBMC of healthy adult blood donors from Colombo, Sri Lanka
- experiment: Ex vivo IFNγ ELISPOT, HLA-matched PBMC of Sri Lankan blood donors
- Format: cell-based, human
- Set-up: unit not given here
- appliedConditions: total over responding donors; restricting HLA allele and serotype as given
measuredMetric: Total Response per epitope
Form field (numeric): enter value without unit.

substanceSmiles	assayTarget	numericReadout
CC[C@H](C)[C@H](NC(=O)[C@H](C)NC(=O)[C@H](C)NC(=O)[C@H](CCSC)NC(=O)[C@@H](NC(=O)[C@@H](NC(=O)[C@@H](N)Cc1ccccc1)[C@@H](C)O)[C@@H](C)CC)C(=O)N[C@@H](CC(C)C)C(=O)N[C@@H](C)C(=O)N[C@@H](Cc1ccc(O)cc1)C(=O)O	PBMC of healthy adult blood donors from Colombo, Sri Lanka	675.0

# input for lookup
I would be grateful if you could share the reported Total Response per epitope for CC(C)C[C@H](NC(=O)[C@H](CCC(N)=O)NC(=O)CNC(=O)[C@@H]1CCCN1C(=O)[C@@H](N)CCC(=O)O)C(=O)N[C@@H](CCCCN)C(=O)N[C@@H](CC(C)C)C(=O)N[C@@H](CC(N)=O)C(=O)N[C@@H](Cc1c[nH]c2ccccc12)C(=O)N[C@@H](Cc1ccccc1)C(=O)O . 581.7
